Measured values drawn from ChEMBL document CHEMBL4513216 for this set.

ASSAY_PROCEDURE: Toxicity liver stage against HepG2, at 10uM
Type: cell-based
Set-up: test concentration 10 uM, cell line HepG2-A16-CD81EGFP
SETTINGS: human, HepG2-A16-CD81EGFP cells; read-out: INHIBITION

COMPOUND: COc1cccc(C(=O)NCCCN2CCc3ccccc3C2)c1OC
cytotoxicity at 10 µM: 6.67%
//
COMPOUND: O=C1C[C@H]2[C@@H](CCN2C(=O)c2cscn2)N1Cc1cccnc1
cytotoxicity at 10 µM: -0.184%
//
COMPOUND: Cn1cnc2c1CCN(CC(=O)N(Cc1ccccc1F)C1CC1)C2
cytotoxicity at 10 µM: 4.91%
//
COMPOUND: CCOC1COC2(CCN(Cc3ccc(C)c(C)c3)CC2)C1 (configuration not stated)
cytotoxicity at 10 µM: -11.2%
//
COMPOUND: O=C(Nc1ccccc1)c1ccc2c(c1)C1(CCCCC1)CN2
cytotoxicity at 10 µM: -31.5%
//
COMPOUND: N#Cc1cc(Cn2cnc(C3CCC3)cc2=O)ccc1F
cytotoxicity at 10 µM: -0.908%
//
COMPOUND: CC(C)Cc1cc(C(=O)NCCN2CCCS2(=O)=O)[nH]n1
cytotoxicity at 10 µM: -7.39%
//
COMPOUND: O=S(=O)(c1ccccc1Cl)N1CCC2(CC1)OCCS2
cytotoxicity at 10 µM: -4.84%
//
COMPOUND: CS(=O)(=O)N[C@@H]1CCN(Cc2cccnc2)[C@H]1Cc1cccnc1
cytotoxicity at 10 µM: -70.2%
//
COMPOUND: COc1cccc(C(=O)N2CCCC(C(=O)CCc3ccccc3)C2)c1 (configuration not stated)
cytotoxicity at 10 µM: -20%
//
COMPOUND: Cc1cc(F)c2c(c1)CCCN2S(=O)(=O)c1ncn(C)c1Cl
cytotoxicity at 10 µM: 1.99%
//
COMPOUND: Cn1cc(Br)c(=O)c(NS(=O)(=O)c2ccc3c(c2)CCC3)c1
cytotoxicity at 10 µM: -3.47%
//
COMPOUND: COCCN(CCOC)C(=O)c1ccn(-c2ccc3ccccn23)n1
cytotoxicity at 10 µM: 7.22%
//
COMPOUND: CC(=O)N1CCC2(CC1)CC[C@@]1(C(=O)N(C)C)CN(S(C)(=O)=O)C[C@@H]21
cytotoxicity at 10 µM: -1.56%
//
COMPOUND: Cc1cc(C)n(-c2cncc(N3CCN(C(=O)CN(C)C)CC3)n2)n1
cytotoxicity at 10 µM: -2.09%
//
COMPOUND: CCN(Cc1cccc2c1OCO2)C(=O)C(C)c1cccnc1 (configuration not stated)
cytotoxicity at 10 µM: -4.84%
//
COMPOUND: Cc1cccc(CN2CCC(n3cc(CCO)nn3)CC2)c1C
cytotoxicity at 10 µM: 0.636%
//
COMPOUND: CC(CN1CCCC1=O)NC(=O)NCc1ccccc1-n1cccn1 (configuration not stated)
cytotoxicity at 10 µM: 3.33%
//
COMPOUND: O=C(c1ccccn1)N1C[C@H]2CC[C@@H](C1)N(C(=O)CCN1CCCC1)C2
cytotoxicity at 10 µM: 3.92%
//
COMPOUND: COCc1cc(CC2(NC3CCCCC3)COC2)no1
cytotoxicity at 10 µM: 0.66%
//
COMPOUND: CCc1nn(C)c2[nH]nc(NC(=O)c3cccnc3OC)c12
cytotoxicity at 10 µM: -8.98%
//
COMPOUND: COC(=O)c1cccc(CNC(=O)CC(F)(F)F)c1
cytotoxicity at 10 µM: 17.4%
//
COMPOUND: CCSc1ccccc1C(=O)NCCN1CCC(c2cccs2)CC1
cytotoxicity at 10 µM: -7.98%
//
COMPOUND: CC(C)NC(=O)Nc1ccc(CNCc2ccc(OC(F)F)cc2)cc1
cytotoxicity at 10 µM: -3.95%
//
COMPOUND: N#Cc1ccccc1CN1CCCC(c2nccn2CC2CCC2)C1 (configuration not stated)
cytotoxicity at 10 µM: -5.06%
//
COMPOUND: Cc1cc(C(=O)N(C)Cc2cnn(C)c2)c(NC(=O)C(C)(C)C)s1
cytotoxicity at 10 µM: 0.254%
//
COMPOUND: CCc1noc(CN2CCN(C(=O)c3ccccn3)CC2)n1
cytotoxicity at 10 µM: -0.775%
//
COMPOUND: Cc1ccc(CNC(C)c2cc(F)ccc2N2CCN(C)CC2)o1 (configuration not stated)
cytotoxicity at 10 µM: 0.513%
//
COMPOUND: O=C(CCc1nc(Cl)n[nH]1)NC1CCCN(C2Cc3ccccc3C2)C1 (configuration not stated)
cytotoxicity at 10 µM: -18.9%
//
COMPOUND: Cc1ccc(-c2nnc([C@H]3CCN(C4CCC4)C3)o2)cc1
cytotoxicity at 10 µM: 8.81%
//
COMPOUND: Cc1nc(CO[C@@H]2CN(Cc3cnn(C)c3)[C@@H]3COC[C@@H]32)cs1
cytotoxicity at 10 µM: -7.06%
//
COMPOUND: CN1CCCC(c2cccc(CCC(=O)NCC3(C)COC3)n2)C1 (configuration not stated)
cytotoxicity at 10 µM: -8.24%
//
COMPOUND: Cc1ccncc1NS(=O)(=O)c1ccc(Cl)s1
cytotoxicity at 10 µM: 0.405%
//
COMPOUND: N#Cc1ccc(CNCC2CCN(CCO)CC2)cc1
cytotoxicity at 10 µM: -9.7%
//
COMPOUND: CC(=O)N1CCCC2(CCC(=O)N2Cc2cccnc2)C1 (configuration not stated)
cytotoxicity at 10 µM: 7.59%
//
COMPOUND: CCN(CC)c1nc(C)cc(C(=O)Nc2cccc(C(N)=O)c2)n1
cytotoxicity at 10 µM: 14.9%
//
COMPOUND: O=C(c1sccc1-n1cnnn1)N1CCCCC1
cytotoxicity at 10 µM: 6.56%
//
COMPOUND: CS(=O)(=O)CCN1CCC(=Cc2ccccc2)CC1
cytotoxicity at 10 µM: -2.99%
//
COMPOUND: CC(C)C(=O)N1CCC12CCCN(C(=O)c1ccnnc1)C2 (configuration not stated)
cytotoxicity at 10 µM: 7.8%
//
COMPOUND: COCCOCCNC(=O)c1cccc(Cn2nc(C)cc2C)c1
cytotoxicity at 10 µM: 17.6%
//
COMPOUND: CCOCCNCC1CCN(CCO)CC1
cytotoxicity at 10 µM: -1.46%
//
COMPOUND: Cc1cccc(CN2CC[C@H]3C[C@H](C)O[C@@H]3C2)n1
cytotoxicity at 10 µM: -78.6%
//
COMPOUND: CN(C)CCN1CCO[C@H]2CN(C(=O)C3CCOCC3)C[C@H]21
cytotoxicity at 10 µM: 1.58%
//
COMPOUND: CC(O)(CNc1ccc(Cl)c(C#N)n1)c1ccsc1 (configuration not stated)
cytotoxicity at 10 µM: 3.39%
//
COMPOUND: CC(CN1CCOCC1)N(Cc1ccccc1)Cc1ccncc1 (configuration not stated)
cytotoxicity at 10 µM: 5.5%
//
COMPOUND: CC1=NN(c2ccc(C(=O)OCCNC(=O)c3ccncc3)cc2)CC1
cytotoxicity at 10 µM: -3.62%
//
COMPOUND: COc1ccc(Oc2ncccc2NC(=O)N2CCOCC2)cc1
cytotoxicity at 10 µM: 9.11%
